- Test system: ozone
- ASSAY COMMENT: apparent second-order rate constant for reaction with ozone (kapp,O3) (M-1 s-1); higher = faster oxidation by ozone
- PROTOCOL CONDITIONS: pH 7; temperature: 22 C; OH radical scavenger: tBuOH 80 mM; phosphate 4 mM
This listing pairs compounds with measured apparent second-order rate constant.
ASSAY METRIC: apparent second-order rate constant

COMPOUND	MEASUREMENT
Cc1cc(C)nc(NS(=O)(=O)c2ccc(N)cc2)n1	933000
Nc1ccc(S(=O)(=O)Nc2ncccn2)cc1	1.23e+06
CN1CCN2c3ncccc3Cc3ccccc3C2C1=O (centres undefined)	64000
CNC(C)C(O)c1ccccc1 (centres undefined) [Pseudoephedrine]	1370
NS(=O)(=O)c1cc2c(cc1Cl)NCNS2(=O)=O [Hydrochlorothiazide]	3000
COc1ccc([C@@H]2Sc3ccccc3N(CCN(C)C)C(=O)[C@@H]2O)cc1	668000
CCC(CC)OC1C=C(C(=O)O)CC(N)C1NC(C)=O (centres undefined)	87000
CC(CN1c2ccccc2CCc2ccccc21)C[N+](C)(C)[O-] (centres undefined) [Trimipramine-N-oxide]	4.8e+06
CC(C)OC(=O)C(C)(C)Oc1ccc(C(=O)c2ccc(Cl)cc2)cc1 [Fenofibrate]	1.27

====

- Test system: ozone
- ASSAY COMMENT: apparent second-order rate constant for reaction with ozone (kapp,O3) (M-1 s-1); higher = faster oxidation by ozone
- PROTOCOL CONDITIONS: pH 7; temperature: 22 C; OH radical scavenger: tBuOH 80 mM; phosphate 4 mM
Measured apparent second-order rate constant accompanies every entry in the list below.
ASSAY METRIC: apparent second-order rate constant

COMPOUND	TARGET OF ASSAY	MEASUREMENT
O=C(O)c1ccccc1Nc1c(Cl)cccc1Cl	ozone	815000
CCCc1nc2c(C)cc(-c3nc4ccccc4n3C)cc2n1Cc1ccc(-c2ccccc2C(=O)OC2OC(C(=O)O)C(O)C(O)C2O)cc1 (centres undefined) [Telmisartan-O-acyl-glucuronide]	ozone	111
O=c1n(CCCN2CCN(c3cccc(Cl)c3)CC2)nc2ccccn12	ozone	1.31e+07
NC1(c2ccccc2Cl)CCCCC1=O (centres undefined)	ozone	37.5

====

Listed molecules paired with reported apparent second-order rate constant
- System: ozone
- ASSAY COMMENT: apparent second-order rate constant for reaction with ozone (kapp,O3) (M-1 s-1); higher = faster oxidation by ozone
- PROTOCOL CONDITIONS: pH 7; temperature: 22 C; OH radical scavenger: tBuOH 80 mM; phosphate 4 mM

MOLECULE	TARGET OF ASSAY	apparent second-order rate constant
CC(=O)Nc1c(I)c(C(=O)NCC(O)CO)c(I)c(C(=O)N(C)CC(O)CO)c1I (centres undefined) [Desmethoxyiopromide]	ozone	1.74
Clc1ccc2c(c1)CCc1cccnc1C2=C1CCNCC1	ozone	1960
CC=C1N(C)C(C)CC1(c1ccccc1)c1ccccc1 (centres undefined) [2-Ethylidene-1,5-dimethyl-3,3-diphenylpyrrolidine (EDDP)]	ozone	99000
C#CCN(C)C(C)Cc1ccccc1 (centres undefined)	ozone	930000

====

- Test system: ozone
- ASSAY COMMENT: apparent second-order rate constant for reaction with ozone (kapp,O3) (M-1 s-1); higher = faster oxidation by ozone
- PROTOCOL CONDITIONS: pH 7; temperature: 22 C; OH radical scavenger: tBuOH 80 mM; phosphate 4 mM
Quick reference for apparent second-order rate constant among some molecules
ASSAY METRIC: apparent second-order rate constant

MOLECULE	TARGET OF ASSAY	MEASUREMENT
C/C(=C\Cc1c(O)c(C)c2c(c1O)C(=O)OC2)CCC(=O)O	ozone	9.2e+07
CCC(c1cccc(OS(=O)(=O)O)c1)C(C)CN(C)C (centres undefined) [Tapentadol-O-sulfate]	ozone	1530
CCCC1CC(C(=O)NC(C(C)Cl)C2OC(S(C)=O)C(O)C(O)C2O)N(C)C1 (centres undefined) [Clindamycin-sulfoxide]	ozone	336000
COC(=O)C1=CCC2CCC1N2C (centres undefined) [Anhydroecgonine methyl ester]	ozone	44000
